Where these numbers come from: ChEMBL document CHEMBL2424552

Provide the reported inhibition of growth at 50 µM of each item.
Test system: PC-3
PROTOCOL DESCRIPTION: Growth inhibition of human PC3 cells at 50 uM after 48 hrs by SRB assay relative to control
Type: functional
EXPERIMENTAL PARAMETERS: PC-3, 48 h, read-out: GI
Respond numerically; units are % and should not be typed.

Lookup: // inhibition of growth at 50 µM lookup, key: `C[C@]12CC[C@H](OC(=O)c3ccc([N+](=O)[O-])cc3)CC1=CC[C@@H]1[C@@H]2CC[C@]2(C)C(n3cccn3)=C(C=O)C[C@@H]12`
Found: 16.7

Lookup: One more compound: `Cc1ccc(C(=O)O[C@H]2CC[C@@]3(C)C(=CC[C@@H]4[C@@H]3CC[C@]3(C)C(n5cncn5)=C(C=O)C[C@@H]43)C2)cc1`
Found: 3.1

Lookup: One more compound: `C[C@]12CC[C@H](OC(=O)C3CCC3)CC1=CC[C@@H]1[C@@H]2CC[C@]2(C)C(n3cncn3)=C(C=O)C[C@@H]12`
Found: 0

Lookup: One more compound: `C[C@]12CC[C@H](OC(=O)c3ccc(F)cc3)CC1=CC[C@@H]1[C@@H]2CC[C@]2(C)C(n3cccn3)=C(C=O)C[C@@H]12`
Found: 20.5

Lookup: One more compound: `C[C@]12CC[C@H](OC(=O)c3ccc(I)cc3)CC1=CC[C@@H]1[C@@H]2CC[C@]2(C)C(n3cccn3)=C(C=O)C[C@@H]12`
Found: 58.4

Lookup: One more compound: `Cc1ccc(C(=O)O[C@H]2CC[C@@]3(C)C(=CC[C@@H]4[C@@H]3CC[C@]3(C)C(n5cccn5)=C(C=O)C[C@@H]43)C2)cc1`
Found: 0

---

Tested on: MCF7
PROTOCOL DESCRIPTION: Growth inhibition of human MCF7 cells at 50 uM after 48 hrs by SRB assay relative to control
Format: functional
EXPERIMENTAL PARAMETERS: MCF7, 48 h, read-out: GI
Provide the reported inhibition of growth at 50 µM of each item.
Respond numerically; units are % and should not be typed.

Lookup: // inhibition of growth at 50 µM lookup, key: `C[C@]12CC[C@H](OC(=O)c3ccc([N+](=O)[O-])cc3)CC1=CC[C@@H]1[C@@H]2CC[C@]2(C)C(n3cccn3)=C(C=O)C[C@@H]12`
Found: 20.2

Lookup: One more molecule: `C[C@]12CC[C@H](OC(=O)c3ccc(C(F)(F)F)cc3)CC1=CC[C@@H]1[C@@H]2CC[C@]2(C)C(n3cncn3)=C(C=O)C[C@@H]12`
Found: 100

Lookup: One more molecule: `C[C@]12CC[C@H](OC(=O)C3CCCC3)CC1=CC[C@@H]1[C@@H]2CC[C@]2(C)C(n3cncn3)=C(C=O)C[C@@H]12`
Found: 0

Lookup: One more molecule: `C[C@]12CC[C@H](OC(=O)c3ccc([N+](=O)[O-])cc3)CC1=CC[C@@H]1[C@@H]2CC[C@]2(C)C(n3cncn3)=C(C=O)C[C@@H]12`
Found: 100

Lookup: One more molecule: `C[C@]12CC[C@H](OC(=O)c3ccc(I)cc3)CC1=CC[C@@H]1[C@@H]2CC[C@]2(C)C(n3cccn3)=C(C=O)C[C@@H]12`
Found: 96.8

Lookup: One more molecule: `COc1ccc(C(=O)O[C@H]2CC[C@@]3(C)C(=CC[C@@H]4[C@@H]3CC[C@]3(C)C(n5cncn5)=C(C=O)C[C@@H]43)C2)cc1`
Found: 23

---

Test system: MCF7
PROTOCOL DESCRIPTION: Growth inhibition of human MCF7 cells at 50 uM after 48 hrs by SRB assay relative to control
Type: functional
EXPERIMENTAL PARAMETERS: MCF7, 48 h, read-out: GI
Provide the reported inhibition of growth at 50 µM of each item.
For clarity, give the value followed by its unit.

Lookup: // inhibition of growth at 50 µM lookup, key: `C[C@]12CC[C@H](O)CC1=CC[C@@H]1[C@@H]2CC[C@]2(C)C(n3cccn3)=C(C=O)C[C@@H]12`
Found: 41.6%

Lookup: One more molecule: `COc1ccc(C(=O)O[C@H]2CC[C@@]3(C)C(=CC[C@@H]4[C@@H]3CC[C@]3(C)C(n5cccn5)=C(C=O)C[C@@H]43)C2)cc1`
Found: 100%

Lookup: One more molecule: `C[C@]12CC[C@H](OC(=O)c3ccc(C#N)cc3)CC1=CC[C@@H]1[C@@H]2CC[C@]2(C)C(n3cccn3)=C(C=O)C[C@@H]12`
Found: 81.2%

Lookup: One more molecule: CC(=O)N1CCN(c2ccc(OCC3COC(Cn4ccnc4)(c4ccc(Cl)cc4Cl)O3)cc2)CC1 (stereo unspecified) [KETOCONAZOLE]
Found: 95.2%

Lookup: One more molecule: `C[C@]12CC[C@H](OC(=O)C3CC3)CC1=CC[C@@H]1[C@@H]2CC[C@]2(C)C(n3cncn3)=C(C=O)C[C@@H]12`
Found: 100%

Lookup: One more molecule: `Cc1ccc(C(=O)O[C@H]2CC[C@@]3(C)C(=CC[C@@H]4[C@@H]3CC[C@]3(C)C(n5cncn5)=C(C=O)C[C@@H]43)C2)cc1`
Found: 48.7%

---

Tested on: PC-3
PROTOCOL DESCRIPTION: Growth inhibition of human PC3 cells at 50 uM after 48 hrs by SRB assay relative to control
Assay type: functional
EXPERIMENTAL PARAMETERS: PC-3, 48 h, read-out: GI
Provide the reported inhibition of growth at 50 µM of each item.
Respond numerically; units are % and should not be typed.

Lookup: Recorded inhibition of growth at 50 µM for `COc1ccc(C(=O)O[C@H]2CC[C@@]3(C)C(=CC[C@@H]4[C@@H]3CC[C@]3(C)C(n5cccn5)=C(C=O)C[C@@H]43)C2)cc1` with PC-3, please?
Found: 51.5

Lookup: One more compound: `C[C@]12CC[C@H](O)CC1=CC[C@@H]1[C@@H]2CC[C@]2(C)C(n3cccn3)=C(C=O)C[C@@H]12`
Found: 100

Lookup: One more compound: `COc1ccc(C(=O)O[C@H]2CC[C@@]3(C)C(=CC[C@@H]4[C@@H]3CC[C@]3(C)C(n5cncn5)=C(C=O)C[C@@H]43)C2)cc1`
Found: 0

Lookup: One more compound: `C[C@]12CC[C@H](OC(=O)C3CC3)CC1=CC[C@@H]1[C@@H]2CC[C@]2(C)C(n3cncn3)=C(C=O)C[C@@H]12`
Found: 88.7

Lookup: One more compound: `C[C@]12CC[C@H](OC(=O)C3CCCCCC3)CC1=CC[C@@H]1[C@@H]2CC[C@]2(C)C(n3cncn3)=C(C=O)C[C@@H]12`
Found: 36.8

Lookup: One more compound: `C[C@]12CC[C@H](OC(=O)C3CCCC3)CC1=CC[C@@H]1[C@@H]2CC[C@]2(C)C(n3cncn3)=C(C=O)C[C@@H]12`
Found: 23.8

---

System: SK-LU-1
PROTOCOL DESCRIPTION: Growth inhibition of human SKLU1 cells at 50 uM after 48 hrs by SRB assay relative to control
Assay type: functional
EXPERIMENTAL PARAMETERS: SK-LU-1, 48 h, read-out: GI
Provide the reported inhibition of growth at 50 µM of each item.
Respond numerically; units are % and should not be typed.

Lookup: // inhibition of growth at 50 µM lookup, key: `C[C@]12CC[C@H](OC(=O)C3CCC3)CC1=CC[C@@H]1[C@@H]2CC[C@]2(C)C(n3cncn3)=C(C=O)C[C@@H]12`
Found: 27

Lookup: One more compound: `C[C@]12CC[C@H](OC(=O)C3CCCCC3)CC1=CC[C@@H]1[C@@H]2CC[C@]2(C)C(n3cncn3)=C(C=O)C[C@@H]12`
Found: 24.9

Lookup: One more compound: `Cc1ccc(C(=O)O[C@H]2CC[C@@]3(C)C(=CC[C@@H]4[C@@H]3CC[C@]3(C)C(n5cncn5)=C(C=O)C[C@@H]43)C2)cc1`
Found: 68

Lookup: One more compound: `C[C@]12CC[C@H](OC(=O)c3ccc([N+](=O)[O-])cc3)CC1=CC[C@@H]1[C@@H]2CC[C@]2(C)C(n3cccn3)=C(C=O)C[C@@H]12`
Found: 7.5

Lookup: One more compound: `COc1ccc(C(=O)O[C@H]2CC[C@@]3(C)C(=CC[C@@H]4[C@@H]3CC[C@]3(C)C(n5cncn5)=C(C=O)C[C@@H]43)C2)cc1`
Found: 9.2

Lookup: One more compound: `C[C@]12CC[C@H](OC(=O)C3CCCC3)CC1=CC[C@@H]1[C@@H]2CC[C@]2(C)C(n3cncn3)=C(C=O)C[C@@H]12`
Found: 0

Lookup: One more compound: `C[C@]12CC[C@H](OC(=O)c3ccccc3)CC1=CC[C@@H]1[C@@H]2CC[C@]2(C)C(n3cncn3)=C(C=O)C[C@@H]12`
Found: 39.7

Lookup: One more compound: `C[C@]12CC[C@H](OC(=O)c3ccc(C(F)(F)F)cc3)CC1=CC[C@@H]1[C@@H]2CC[C@]2(C)C(n3cncn3)=C(C=O)C[C@@H]12`
Found: 89.1

Lookup: One more compound: `C[C@]12CC[C@H](OC(=O)c3ccc(C#N)cc3)CC1=CC[C@@H]1[C@@H]2CC[C@]2(C)C(n3cccn3)=C(C=O)C[C@@H]12`
Found: 22.5

Lookup: One more compound: `C[C@]12CC[C@H](OC(=O)c3ccccc3)CC1=CC[C@@H]1[C@@H]2CC[C@]2(C)C(n3cccn3)=C(C=O)C[C@@H]12`
Found: 5.8

Lookup: One more compound: `C[C@]12CC[C@H](OC(=O)c3ccc(F)cc3)CC1=CC[C@@H]1[C@@H]2CC[C@]2(C)C(n3cccn3)=C(C=O)C[C@@H]12`
Found: 5.5

Lookup: One more compound: `C[C@]12CC[C@H](OC(=O)c3ccc(C#N)cc3)CC1=CC[C@@H]1[C@@H]2CC[C@]2(C)C(n3cncn3)=C(C=O)C[C@@H]12`
Found: 89.9

Lookup: One more compound: `C[C@]12CC[C@H](OC(=O)c3ccc(Br)cc3)CC1=CC[C@@H]1[C@@H]2CC[C@]2(C)C(n3cccn3)=C(C=O)C[C@@H]12`
Found: 17.4
